# Test system: HL-60 cells / intestinal Ca^2+ transport
# assayInfo: Cell differentiation versus calciotropic effect (ratio of HL-60 NBT reduction to intestinal Ca2+ transport)
# Assay type: cell-based, human
# runConditions: fraction normalised to 1α,25-DHCC = 1.00
measureName: ratio relative to DHCC
Form rule: numeric answer, no unit written next to it.

Below are worked cases with known answers.
For C=C1/C(=C\C=C2/CCC[C@@]3(C)C2CCC3[C@H](C)CCCC(O)(C2CC2)C2CC2)C[C@@H](O)C[C@@H]1O (some centres unmarked) the compound record lists ratio relative to DHCC as 0.13

For C=C1/C(=C\C=C2/CCC[C@@]3(C)C2CCC3[C@H](C)CCCC(O)(C(C)C)C(C)C)C[C@@H](O)C[C@@H]1O (some centres unmarked) the compound record lists ratio relative to DHCC as 0.02

For C=C1/C(=C\C=C2/CCC[C@]3(C)[C@@H]([C@H](C)CCCC(C)(C)O)CC[C@@H]23)C[C@@H](O)C[C@@H]1O [1α,25-DHCC, 1α,25-dihydroxycholecalciferol, reference compound] the compound record lists ratio relative to DHCC as 1.00

Next:
For C=C1/C(=C\C=C2/CCC[C@@]3(C)C2CCC3[C@H](C)CCCC(O)(C(C)(C)C)C(C)(C)C)C[C@@H](O)C[C@@H]1O (some centres unmarked) the compound record lists ratio relative to DHCC as 0.28

For C=C1/C(=C\C=C2/CCC[C@@]3(CC)C2CCC3[C@H](C)CCCC(O)(C(C)C)C(C)C)C[C@@H](O)C[C@@H]1O (some centres unmarked) the compound record lists ratio relative to DHCC as 0.02

From: patent USRE36854E
